Listed below: IC50 values for each entry.
# measured.target: T1, HIV-1 YU-2 gp120 (wild-type gp120YU-2, monomeric) (HIV-1 (YU-2), UniProt P35961 32-498)
# T1 construct: domain: gp120; only gp120 stood in the assay
# protocol.details: SPR competition, 17b inhibition: inhibition of gp120 binding to immobilized mAb 17b
Starred links: 1 amine or outer side, 2 acyl side, 3 side chain; linkers in the order of their positions; H or OH if unused. Positions of bridges follow the written chain, without caps; N, C: chain ends. Non-standard residues stand in square brackets, D forms with d. No end group written: not given here. X2 = (2S,4S)‑4‑(4-ferrocenyl-1H-1,2,3-triazol-1-yl)pyrrolidine‑2‑carboxylic acid, O=C([C@@H]1C[C@H](n2cc(-[c-]3cccc3)nn2)CN1[*:1])[*:2].[Fe+2].c1cc[cH-]c1; Bta = N[C@@H](Cc1csc2ccccc12)C(=O)O; Gly(cPr) = N[C@H](C(=O)O)C1CC1

DNI[(2S,4S)‑4‑(4-(adamantan-2-yl)-1H-1,2,3-triazol-1-yl)pyrrolidine‑2‑carboxylic acid]WK-NH2 (lactam 1-6) [AAR029F]    ~200 nM
DNI[X2][Bta]K-NH2 (lactam 1-6) [AAR029E]    ~20 nM

// next item, IC50 requested
Q: Query: IC50; subject: DN[Gly(cPr)][X2]WK-NH2 (lactam 1-6) [AAR042]
Result: ~2000 nM
